The following molecules are shown together with reported melting point values.

MOLECULE: Cc1cc(C)c(C(=O)O)c(C)n1
melting point: 130 to 160 °C

MOLECULE: C=C1C(C)C2C(Cc3ccccc3)NC(=O)C23OC(=O)C=CC(O)CCCC(C)CC=CC3C1O (stereo unspecified)
melting point: 218 to 223 °C

MOLECULE: S=C=Nc1ccc2c(c1)OCCO2
melting point: 64 to 66 °C

Indicate the recorded melting point value for this molecule: `FC(F)(F)c1ccc(-n2ccnc2)cc1`
71 to 73 °C

Indicate the recorded melting point value for this molecule: `O=C(O)CCCc1ccc(F)cc1`
45 to 47 °C

Indicate the recorded melting point value for this molecule: `N#Cc1ccccc1CN1CCOCC1`
49 to 50 °C

###

The following molecules are shown together with reported melting point values.

Some entries whose results are on file:
MOLECULE: CC(C)(C)[N+]([O-])=Cc1ccccc1
melting point: 71 to 75 °C

MOLECULE: O=S(=O)(N(c1ccccc1)S(=O)(=O)C(F)(F)F)C(F)(F)F
melting point: 99 to 105 °C

MOLECULE: O=C(O)CCc1cc(Br)c(O)c(Br)c1
melting point: 108 to 110 °C

MOLECULE: CC(C)CCCC(C)C1CCC2C3CCC4=CC(=O)CCC4(C)C3CCC12C (stereo not drawn)
melting point: 79 to 82 °C

MOLECULE: O=C(O)/C=C/c1cccc2c(Br)ccc([N+](=O)[O-])c12
melting point: 141 to 142 °C

MOLECULE: CCCCCCCC(N)P(=O)(O)O (stereo not drawn)
melting point: 269 to 270 °C

MOLECULE: CCOC(=O)c1[nH]nc(C)c1C(=O)OCC
melting point: 98 to 99 °C

Indicate the recorded melting point value for this molecule: `O=Cc1cn(Cc2ccccc2)c2ccccc12`
108 to 110 °C

###

MEASUREMENT NAME: melting point

Some entries whose results are on file:
SMILES STRING: O=Cc1ccc(Cn2cccn2)cc1
OBS VALUE: 57 to 59 °C
//
SMILES STRING: O=c1[nH]c(=O)n(CCO)c2c1CCCC2
OBS VALUE: 275 to 278 °C
//
SMILES STRING: Cc1c(N)cccc1O
OBS VALUE: 127 to 133 °C
//
SMILES STRING: O=C1C=CC(=O)N1c1ccc(-c2nc3ccccc3o2)cc1
OBS VALUE: 211 to 213 °C
//
SMILES STRING: CSc1nc(N=Cc2ccc(Cl)cc2)nn1C
OBS VALUE: 136 to 138 °C
//
SMILES STRING: CC1(C)CC(=O)c2cc(-c3ccccc3)n(-c3ccc(Cl)c(Cl)c3)c2C1
OBS VALUE: 167 to 169 °C

Please turn your attention to the following entry.
Indicate the recorded melting point value for this compound: `O=c1c(Cl)c(Cl)cnn1Cc1c(F)cccc1Cl`
137 to 138 °C

###

MEASUREMENT NAME: melting point

SMILES STRING: Cc1cc(Br)c2c(c1N)C(=O)c1ccccc1C2=O
MEASUREMENT NAME: melting point
OBS VALUE: 245 to 252 °C

SMILES STRING: O=S(=O)(Cl)c1ccc(-c2ccc(Cl)cc2)cc1
MEASUREMENT NAME: melting point
OBS VALUE: 109 to 110 °C

SMILES STRING: O=C(O)C(F)(F)C(F)(F)C(F)(F)C(F)(F)C(F)(F)C(F)(F)F
MEASUREMENT NAME: melting point
OBS VALUE: 31 to 36 °C

Indicate the recorded melting point value for this compound: `CC(C)=CCC(C#N)(CC=C(C)C)C(=O)O`
70 to 71 °C

Indicate the recorded melting point value for this compound: `COC(=O)c1ccccc1-n1c(SC)nc2ccccc2c1=O`
178 to 180 °C

Indicate the recorded melting point value for this compound: `Cc1nccn1-c1ccc(C#N)cc1`
138 to 141 °C

Indicate the recorded melting point value for this compound: `CCOC(=O)c1cc(-c2ccco2)on1`
49 to 50 °C

Indicate the recorded melting point value for this compound: `CCOC(=O)c1c(C)n[nH]c1C`
118 to 119 °C
